method notes: folding enthalpy; higher = less favourable; fluorescence melt of hairpins on a sequencing array, two-state fit
experimental parameters: sodium 0.088 M
endpoint: folding enthalpy (kcal/mol)
Give just the number in kcal/mol; leave the unit off.

polymer sequence	unit text	test result
GTGATCGAAAGATCCCAC ((((((....)))..)))	kcal/mol	-10.7
GATCGGACGACCGATC ((((((....))))))	kcal/mol	-35.1
GTGACTGCGAAAGCACAC (((..(((....))))))	kcal/mol	-8.82

Q: Report folding enthalpy for GCGAATCGTCGC ((((....)))) please.
A: -18

Q: Report folding enthalpy for GACTATGGAAACATAGCC (.(((((....))))).) please.
A: -22.6
